Task for the reader: assign each of the following molecules its reported TGI.
Test system: EKVX NSCLC
assay_method_text: NCI tumour cell line growth inhibition, 48 h

### Prompt // fetch TGI given entry COc1ccc(Cn2c(Cl)c(/C=C3/C(=O)Nc4ccccc43)c3cc(OC)c(C)cc32)cc1
### Response > 100 µM

### Prompt Name the recorded TGI of the item Cn1cc(CNCC2CCN(c3ncc(C(=O)NO)cn3)CC2)c2ccccc21 in your answer.
### Response 23.4 µM

### Prompt Give the value of TGI reported for the following: COc1ccc(CN2c3ccccc3CCc3ccccc32)cc1F
### Response > 100 µM

### Prompt Identify measured TGI corresponding to COc1cc2c(cc1OC)-c1c3c(cc4c1[C@@H](C2)N(C)CC4)OCO3
### Response 37.3 µM

### Prompt Give the reported TGI for this molecule. O=C(O)CSc1ncccc1[N+](=O)[O-]
### Response > 100 µM

### Prompt Read off the recorded TGI for COc1ccc(Cl)cc1Nc1nc(C(F)(F)F)ccc1C(=O)N/N=C/c1cc(OC)c(OC)c(OC)c1
### Response 13.5 µM

### Prompt Identify the reported TGI for the following entry. CCc1ccc2c(c1)CC1(C2)Cc2cc3c(cc2C1)C(=O)CC3 (centres undefined)
### Response > 100 µM

### Prompt Tell me its TGI given C[C@]12CC[C@@H]3c4ccc(O)cc4C(O)C[C@H]3[C@@H]1CCC2=O (some centres undefined) as the entry.
### Response > 100 µM

### Prompt Provide only the value of recorded TGI for O=[N+]([O-])c1ccc2c(c1)[O][Sn][O]2
### Response > 150 µg/mL

### Prompt Supply measured TGI of Cc1c(NC2(C)C(=O)N(/N=C/c3ccccc3)N=C2c2ccccc2)n[nH]c1-c1ccccc1 (centres undefined) in your reply.
### Response > 100 µM

### Prompt Specify reported TGI for the molecule shown: O=C([CH-]C(=O)C(F)(F)F)c1ccccc1.O=C([CH-]C(=O)C(F)(F)F)c1ccccc1.O=C([CH-]C(=O)C(F)(F)F)c1ccccc1.O=C([CH-]C(=O)C(F)(F)F)c1ccccc1.[Eu+3].c1ccncc1
### Response 58.6 µM

### Prompt Give the reported value of TGI for this record: Nc1ccc(S(=O)(=O)NCc2nccs2)cc1
### Response 40.7 µM

### Prompt Fill in TGI for record Cc1ccc(C(=O)/C(C#N)=C/Nc2c(C)n(C)n(-c3ccccc3)c2=O)cc1
### Response > 100 µM

### Prompt In one line, give reported TGI of the entry Cc1ccc(S(=O)(=O)c2c(O)c3ccccc3n(C)c2=O)cc1 .
### Response > 100 µM

### Prompt Given Cc1ccc2c(c1)C(c1cccc3ccccc13)OC2=O (centres undefined) , respond with its TGI.
### Response > 100 µM

### Prompt Determine its reported TGI: COC1CC(OC(=O)c2ccccc2)C(OC(=O)c2ccccc2)C(C)O1 (centres undefined)
### Response > 100 µM

### Prompt Assign TGI to the following record: COC(=O)c1c(-c2ccccc2)sc(-c2cccc3ccccc23)c1C(=O)OC
### Response > 100 µM

### Prompt For the molecule O=C1c2ccccc2-n2c1nc1ccccc1c2=O , report TGI.
### Response 35.3 µM

### Prompt Read the entry NC(=O)c1ccc(C2C3=C(CCCC3=O)OC3=C2C(=O)c2ccccc2C3=O)cc1 (centres undefined) and write its reported TGI.
### Response 2.83 µM

### Prompt Retrieve TGI measured for C=C(C)C1CC=C(C)C2(C1)OCC(C)(C)C(C)O2 (centres undefined) and print it.
### Response 62.3 µM

### Prompt Item c1ccc2c(Cc3nnc4sc(SSc5nn6c(Cc7c[nH]c8ccccc78)nnc6s5)nn34)c[nH]c2c1 : provide TGI
### Response > 100 µM

### Prompt Retrieve TGI measured for COc1cc(C2S/C(=C/c3ccccc3)C(=O)N2c2ccc(Cl)c(Cl)c2)cc(OC)c1OC (centres undefined) and print it.
### Response > 100 µM

### Prompt Entry C[C-](O)O.O/C(=C\[C-](O)c1ccccc1)c1ccccc1.O/C(=C\[C-](O)c1ccccc1)c1ccccc1.[Nd+3] (centres undefined) needs its TGI filled in; supply it.
### Response 55 µM

### Prompt Name the recorded TGI of the item CCOC(=O)COS(=O)(=O)C(F)(F)F in your answer.
### Response > 100 µM

### Prompt Write down TGI measured for item C/C(O)=C/c1nc2ccc([N+](=O)[O-])cc2nc1/C=C(/C)O
### Response > 100 µM

### Prompt Fill in TGI for record CC(=O)Nc1ccc(S(=O)(=O)NNC(=O)c2cccnc2Nc2ccc(Cl)cc2)cc1
### Response > 100 µM

### Prompt Return TGI for the following molecule: c1nnc(NCNc2nncs2)s1
### Response > 100 µM

### Prompt Entry O=C1CC(=O)OC(c2ccc([N+](=O)[O-])cc2)O1 needs its TGI filled in; supply it.
### Response 18.3 µM

### Prompt Identify measured TGI corresponding to O=[N+]([O-])c1ccc2c(c1)[O][Sn]([I])([I])[O]2
### Response > 100 µM

----------
Test system: TK-10 renal
assay_method_text: NCI tumour cell line growth inhibition, 48 h
test_readout: TGI

### Prompt Please report TGI for the following molecule: COc1cc(/C=C2\CCC(C)C3=C2NC(=S)NC3c2cc(OC)c(OC)c(OC)c2)cc(OC)c1OC (stereo not drawn)
### Response > 100 µM

### Prompt Please report the measured TGI for C[n+]1c2ccccc2c(C(=O)Nc2ccc(S(=O)(=O)N=C(N)N)cc2)c2ccccc21
### Response > 100 µM

### Prompt # return recorded TGI for entry COc1cc(Cn2c(-c3nonc3N)nc3ccccc32)ccc1C
### Response 30 µM

### Prompt Tell me its TGI given c1nnc(NCNc2nncs2)s1 as the entry.
### Response > 100 µM

### Prompt Query TGI for COc1ccccc1Nc1nc(NNC(=O)Cc2ccccc2)nc(NNC(=O)c2ccncc2)n1
### Response > 10 µM

### Prompt Find the measured TGI of c1ccc2c(Cc3nnc4sc(SSc5nn6c(Cc7c[nH]c8ccccc78)nnc6s5)nn34)c[nH]c2c1 and report it.
### Response > 100 µM

### Prompt Please list TGI recorded for the molecule NCCCCNCCCNC(=O)c1nc(-c2csc(CCN)n2)sc1Cl
### Response > 100 µM

### Prompt Give TGI for Cc1c(-c2ccccc2)c(C#N)c2nnc(C(N)=O)c(N)n12
### Response > 100 µM

### Prompt Let me know recorded TGI for CCOC(=O)C(=O)Nc1c(C(C)C)cccc1C(C)C , thanks.
### Response > 100 µM

### Prompt Provide only the value of recorded TGI for O=C1Nc2cccc3cc(NCC(O)CCl)cc1c23 (stereo not drawn)
### Response > 100 µM

### Prompt Give a short answer stating reported TGI for CCN1CSC(=S)N(CC)C1 .
### Response > 100 µM

### Prompt Supply recorded TGI for N#C[C@@H]1C(n2ccc(N)nc2=O)O[C@H](CO)[C@H]1O (stereo partly drawn) here.
### Response > 100 µM

### Prompt // Input: O=C1c2ccccc2-n2c1nc1ccccc1c2=O . Output its TGI only.
### Response > 100 µM

### Prompt Please indicate TGI recorded for C[N+]1(C)C/C(=C\c2ccncc2)C(=O)/C(=C/c2ccncc2)C1
### Response > 100 µM

### Prompt Provide only the value of recorded TGI for C=C1C(=O)OC2/C=C(\C=O)CC/C=C(\C)C(O)C[C@@H]12 (stereo partly drawn)
### Response 24.7 µM

### Prompt Give the measured TGI for N.N.N.N.N.N.O=N[O-].[Br-].[Co+3].[Co+3].[OH3+].[OH3+]
### Response > 100 µM

### Prompt Answer with the recorded TGI of Cc1ccc2c(c1)C(c1cccc3ccccc13)OC2=O (stereo not drawn) only.
### Response > 100 µM

### Prompt Look up and report measured TGI for this entry: CCOC(=O)[C@H]1Nc2ccc(OC)cc2C2c3ccccc3CC21 (stereo partly drawn)
### Response > 100 µM

### Prompt Entry COC(=O)[C@@]12CCCC(=O)[C@@H]1[C@H]1CCCC[C@H]12 needs its TGI filled in; supply it.
### Response > 100 µM

### Prompt Give TGI for the following molecule: NC(=O)c1ccc(C2C3=C(CCCC3=O)OC3=C2C(=O)c2ccccc2C3=O)cc1 (stereo not drawn)
### Response 3.22 µM

### Prompt Recall and state the measured TGI for CC(=Nc1ccncc1)C(C)=Nc1ccncc1 .
### Response > 100 µM

### Prompt Please look at this molecule and report its TGI: CN(C)CCNc1ncnc2nc(-c3ccc4ccccc4c3)[nH]c12
### Response > 100 µM

### Prompt Provide TGI value for the following molecule: COc1cc2c(/C=C3/C(=O)N(c4ccccc4)c4ccccc43)c(Cl)[nH]c2cc1C
### Response 12.8 µM

### Prompt Give the measured TGI for O=c1[nH]nc(Cc2ccccc2)n1-n1cnnc1
### Response > 100 µM

### Prompt Query TGI for C=CC[C@@]1(C(=O)OC)[C@H](Sc2ccccc2)C1(C)C
### Response > 100 µM

### Prompt Report TGI for COC1CC(OC(=O)c2ccccc2)C(OC(=O)c2ccccc2)C(C)O1 (stereo not drawn)
### Response > 100 µM

### Prompt Answer with the recorded TGI of FCc1ncc(-c2ccc(C(F)(F)F)cc2)c(NC2CCCCCC2)n1 only.
### Response > 10 µM

### Prompt Answer with reported TGI of Cc1c(Cl)cccc1NC(=O)CC1C(=O)Nc2ccccc2S1(=O)=O (stereo not drawn)
### Response 56.6 µM
